Assay: A549 cell viability effects, profiling panel, calcein-AM fluorescence, 48 h, basal (AID 1162); also: test concentration not given here
Settings: higher = more signal
observation-type: z-score

Query block: I have this compound here, "O=C1C[C@]2(c3ccc([N+](=O)[O-])cc3)C(=O)N(CCN3CCOCC3)c3cc(CO)ccc3[C@H]2N1CC12CC3CC(CC(C3)C1)C2" , and I need its recorded z-score.
Result block: -0.677

Query block: Which value of z-score has been reported for "COC(=O)[C@H]1COC(c2ccc(OCCCO)cc2)=N1" in the records?
Result block: -0.283

Query block: Would you kindly share the measured z-score for "COC(=O)c1c(CC[C@@H](CO)NC(=O)N[C@H](Cc2ccccc2)Cn2cc(-c3ccccc3N)nn2)oc(C(C)=O)c1C(=O)OC" ?
Result block: 0.238

Query block: Request the reported z-score associated with "CC(=O)OC[C@H]1O[C@H](CC=NOC[C@@H](C)[C@H](OCc2ccccc2)C(C)C)C=C[C@@H]1OC(C)=O"
Result block: -0.878

Query block: I would be grateful if you could share the reported z-score for c1ccc(C2NCCc3c2[nH]c2ccccc32)cc1 (stereo not given) .
Result block: -0.479

###

Assay: E. coli acrAB mutant growth effects, primary screen, E. coli filamentation inducers, strain DRC39, OD650, 48 h (AID 1179);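 also: screen aims at cell division blockers that make cells filament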
Conditions: E. coli DRC39 delta-acrAB growth, higher = more signal, called active from +8 up or from −8 down
observation-type: z-score
Please give the numeric answer without any surrounding text.

Query block: Quick one: z-score for "O=C1[C@H]2[C@H]3[C@H](O)[C@H](O)CC(=NO[C@@H]4O[C@H](CO)[C@@H](O)[C@H](O)[C@H]4O)[C@H]3CC[C@H]2C(=O)N1Cc1ccc2c(c1)OCO2" ?
Result block: 0.385

Query block: // query z-score value for entry "C=CCNC(=O)[C@H]1[C@@H]2C(=O)O[C@@H](c3ccccc3)[C@@H](c3ccccc3)N2[C@@H](c2ccc(O)cc2)[C@]12C(=O)N(C(=O)OCCOC)c1ccc(C#CC3=CCCCC3)cc12"
Result block: -0.723

Query block: I'd like to know its z-score. The compound in question is "CCCNC(=O)OC[C@H]1O[C@H](CCON=C[C@@H](OC)[C@H](C)C=CCC(=O)OC)C=C[C@@H]1Oc1ccc(OC)cc1"
Result block: 0.138

Query block: Item CS(=O)(=O)CCOC(=O)C1=CC(CCCO)=CC(c2cccs2)N(Cc2cccc(OC(F)(F)F)c2)C=C1C(=O)OCCS(C)(=O)=O (stereo unspecified) has what recorded z-score?
Result block: -0.0926

Query block: Recorded z-score for "O=C1[C@H]2[C@H]3[C@H](O)[C@H](O)CC(=NO[C@@H]4O[C@H](CO)[C@@H](O)[C@H](O)[C@H]4O)[C@H]3CC[C@H]2C(=O)N1Cc1ccccc1" , please?
Result block: 0.355

Query block: Please give the measured z-score for this compound: "CO[C@@H]1COC(=O)CC=C[C@@H](C)[C@@H]2C=C[C@@H](O)[C@@H](COC(=O)CC=C[C@H]1C)O2"
Result block: -0.392

###

Experiment: FRG1 promoter luciferase signal modulators, primary screen, FRG1 inhibition for FSHD, cell-based, C2C12 myotubes, firefly/Renilla luciferase, luminescence (AID 1084)
Settings: higher = more signal, called active from +8 up or from −8 down
Lab note: class by z-score, see small value (below -0.6), mid value (-0.6 to below 0.4), large value (0.4 or more)

Query block: Sort "COc1ccccc1CN1C(=O)c2ccccc2[C@@]2(Cc3ccccc3N(C(C)C)C2=O)[C@@H]1c1ccc(CO)cc1" into one of the categories.
Result block: small value

Query block: Which bin should I file "C[N+](C)(C)CCCCCCNC(=O)[C@@H]1C[C@@H]2C(=O)N3CCC[C@H]3C(=O)N2[C@@H]1c1cccc(OCCO)c1" under?
Result block: large value

Query block: Determine which band this compound sits in: "CC(C)NC(=O)[C@@]1(c2ccc([N+](=O)[O-])cc2)CC(=O)N(CC23CC4CC(CC(C4)C2)C3)[C@@H]1c1ccc(CO)cc1I"
Result block: small value

Query block: Any idea which band "CCN1C(=O)[C@H]2[C@H]3[C@H](O)[C@H](O)CC(=NOCc4ccccc4)[C@@H]3CC[C@H]2C1=O" is in?
Result block: small value

Query block: # bin label for "Cc1cc(C)c(-c2cc([C@H](C)ON=C3[C@H]4CCn5c(=O)n(-c6ccccc6)c(=O)n5[C@H]4[C@H](O)[C@@H]4O[C@H]34)on2)c(C)c1"
Result block: small value

Query block: Hello team, could you let me know which band the following compound falls into: "C=CC[C@@H]1C=C[C@H](ON=Cc2ccc(C(=O)N3[C@H](c4ccc(C)cc4)[C@@H](C)CC[C@H]3C(=O)OC)cc2)[C@@H](CO)O1"
Result block: mid value

Query block: For "O=C(NN=C1C[C@@H](O)[C@@H](O)[C@@H]2[C@@H]3C(=O)N(c4ccc(F)cc4F)C(=O)[C@@H]3CC[C@@H]12)OCc1ccccc1" , which z-score bin applies?
Result block: mid value

Query block: Hi, small favor: classify "CO[C@H]([C@@H](C)[C@H](OC)c1ccccc1)[C@H](C)[C@@H](OC)[C@H](C)C(C)=O" by its z-score when you get a moment.
Result block: large value

Query block: Please indicate the class for "CC(C)(C)N1C(=O)[C@H]2[C@H]3[C@H](O)[C@H](O)CC(=NOCc4ccccc4)[C@@H]3CC[C@H]2C1=O" based on its z-score.
Result block: small value

Query block: Which bin, given its z-score, does "COCCOC(=O)N1C(=O)[C@@]2(c3cc(C#CCNC(N)=O)ccc31)[C@H](c1ccc(O)cc1)N1[C@H](c3ccccc3)[C@H](c3ccccc3)OC(=O)[C@H]1[C@@H]2C(=O)N1CCCCCCC1" occupy?
Result block: mid value

Query block: Which band does CCOC(=O)[C@H](Cc1ccccc1)NC(=O)CCC1CC(OC(=O)NCCc2ccc(F)cc2)CC2(CCCC(COC(=O)NCC(c3ccccc3)c3ccccc3)O2)O1 (some centres undefined) fall in?
Result block: large value

Query block: Any idea which band COc1cccc([C@H]2Oc3ccc(OC)cc3C(=NOC(C)CN3CCCc4nc(C)c(C)cc43)[C@@H]2O)c1 (some centres undefined) is in?
Result block: large value

Query block: Would you mind sorting "C=CC[C@@H]1C=C[C@H](ON=C[C@@H](OC)[C@H](C)C=CCC(=O)OC)[C@@H](CO)O1" into the appropriate category?
Result block: large value
